System: SMMC-7721 (human hepatoma cells)
Test: MTT inhibition of tumor cell growth, SMMC-7721
Format: cell-based
Conditions: Homo sapiens, SMMC-7721, 48 h, Table 2, derivatives having potential Michael reaction acceptor
Strictly below 3000 nM in IC50: condition met. Otherwise: condition not met.

Task item: Identify whether the compound C=C1C(=O)[C@]23CC[C@H]1CC2[C@@]12CCC[C@@](C)(COC1=O)C2[C@H](Cl)C3=O (some centres unmarked) records IC50 below 3000 nM.
Reply: condition met

Task item: Identify whether the compound C=C1C(=O)[C@]23CC[C@H]1CC2[C@@]12CCC[C@@](C)(COC1)C2[C@H](CO)C3=O (some centres unmarked) records IC50 below 3000 nM.
Reply: condition met

Task item: Identify whether the compound C=C1C(=O)[C@]23CC[C@H]1CC2[C@@]12CCC[C@@](C)(COC1=O)C2CC3=O (some centres unmarked) records IC50 below 3000 nM.
Reply: condition not met

Task item: Identify whether the compound C=C1C(=O)[C@]23CC[C@H]1CC2[C@@]12CCC[C@@](C)(COC1=O)C2[C@H](Br)C3=O (some centres unmarked) records IC50 below 3000 nM.
Reply: condition met

Task item: Identify whether the compound C=C1C(=O)[C@]23CC[C@H]1CC2[C@@]12CCC[C@@](C)(COC1=O)C2C(CN(C)C)C3=O (some centres unmarked) records IC50 below 3000 nM.
Reply: condition met

Task item: Identify whether the compound C=C1C(=O)[C@@]23CC[C@@H](CC2[C@@]24CCC[C@@](C)(COC2)C14)C(=C)C3=O (some centres unmarked) records IC50 below 3000 nM.
Reply: condition not met

Task item: Identify whether the compound C=C1C(=O)[C@]23CC[C@H]1CC2[C@@]12CCC[C@@](C)(COC1)C2CC3=O (some centres unmarked) records IC50 below 3000 nM.
Reply: condition not met

Task item: Identify whether the compound C=C1C(=O)[C@]23CC[C@H]1CC2[C@@]12CCC[C@@](C)(COC1)C2[C@H](COS(C)(=O)=O)C3=O (some centres unmarked) records IC50 below 3000 nM.
Reply: condition not met

* * *

Exercise: state measured IC50 for each of the compounds provided.
Test system: Wnt signaling pathway (Top-Flash reporter gene)
Experiment: Top-Flash Wnt reporter gene assay in HEK293T cells with Wnt3a conditioned medium
Assay type: cell-based
Settings: Homo sapiens, HEK-293T, 6 h, Table 10; HEK293T, Wnt3a conditioned medium, 6 h; read-out: IC50 (μM), inhibitory activity on the Wnt signaling pathway
Write it as a number; the unit µM goes unstated.

Task item: Give the reported value of IC50 for this record: C=C1C(=O)[C@]23CC[C@H]1CC2[C@@]12CCC[C@@](C)(COC1)C2[C@H](CO)C3=O (stereo partly shown) [Compound 30]
Reply: 15.4

Task item: Give the reported value of IC50 for this record: C=C1C(=O)[C@]23CC[C@H]1CC2[C@]1(COC(=O)N2CCOCC2)CCC[C@@](C)(COS(C)(=O)=O)C1CC3=O (stereo partly shown) [Compound 59]
Reply: 43.8

Task item: Give the reported value of IC50 for this record: C=C1C(=O)[C@]23CC[C@H]1CC2[C@@]12CCC[C@@](C)(COC1=O)C2C[C@H]3O (stereo partly shown) [Compound 1, 15-oxospiramilactone]
Reply: 13.9

Task item: Give the reported value of IC50 for this record: C=C1C(=O)C23CC[C@H]1CC2[C@]1(COS(C)(=O)=O)CCC[C@@](C)(COC(=O)N2CCOCC2)C1CC3=O (stereo partly shown) [Compound 61]
Reply: 32.3

Task item: Give the reported value of IC50 for this record: C=C1C(=O)[C@]23CC[C@H]1CC2[C@@]12CCC[C@@](C)(COC1)C2[C@H](COS(C)(=O)=O)C3=O (stereo partly shown) [Compound 32]
Reply: 19.8

Task item: Give the reported value of IC50 for this record: C=C1C(=O)C23CC[C@H]1CC2[C@]1(CO)CCC[C@@](C)(CO)C1C[C@H]3O (stereo partly shown) [Compound 46]
Reply: 27.7

Task item: Give the reported value of IC50 for this record: C=C1C(=O)C23CC[C@H]1CC2[C@]1(COCC#N)CCC[C@@](C)(COC(=O)c2cccs2)C1CC3=O (stereo partly shown) [Compound 55]
Reply: 12.1

* * *

System: Wnt signaling pathway (Top-Flash reporter gene)
Experiment: Top-Flash Wnt reporter gene assay in HEK293T cells with Wnt3a conditioned medium
Format: cell-based
Settings: Homo sapiens, HEK-293T, 6 h, Table 7 (second), derivatives modified on 7-hydroxyl of S-3; HEK293T, Wnt3a conditioned medium, 6 h; read-out: IC50 (μM), inhibitory activity on the Wnt signaling pathway
Experimental: HEK293T cells were cultured in DMEM containing 10% fetal bovine serum (Invitrogen) at 37° C., 5% CO2. The cells were passaged every other day. The density was retained at 70˜80% during passage. […] The HEK293T cells used for activity assay of the report gene were transfected by the method as shown in 2). […] The indensity of GFP protein in the cell lysate was measured by fluorimeter FL600 (BIO-TEK Inc. Winooski, Vt.), and taken as internal standard for cell transfection efficiency. […]
Exercise: state measured IC50 for each of the compounds provided.
Write it as a number; the unit µM goes unstated.

Task item: Give the reported value of IC50 for this record: C=C1C(=O)[C@]23CC[C@H]1CC2[C@@]12CCC[C@@](C)(COC1=O)C2C[C@H]3OC(C)=O (some centres unmarked)
Reply: 14.2

Task item: Give the reported value of IC50 for this record: C=C1C(=O)C23CC[C@H]1CC2[C@@]12CCC[C@@](C)(COC1=O)C2C[C@H]3OC(=O)c1ccco1 (some centres unmarked)
Reply: 18.9

Task item: Give the reported value of IC50 for this record: C=C1C(=O)C23CC[C@H]1CC2[C@@]12CCC[C@@](C)(COC1=O)C2C[C@H]3OS(=O)(=O)Cc1ccccc1 (some centres unmarked)
Reply: 8.92

Task item: Give the reported value of IC50 for this record: C=C1C(=O)[C@]23CC[C@H]1CC2[C@@]12CCC[C@@](C)(COC1=O)C2CC3=O (some centres unmarked)
Reply: 12.1

Task item: Give the reported value of IC50 for this record: C=C1C(=O)C23CC[C@H]1CC2[C@@]12CCC[C@@](C)(COC1=O)C2C[C@H]3OS(=O)(=O)c1ccccc1 (some centres unmarked)
Reply: 12.4

* * *

Exercise: state measured pIC50 for each of the molecules provided.
System: MCF-7 (human breast cancer cells)
Assay: MTT inhibition of tumor cell growth, MCF-7
Assay type: cell-based
Details: Homo sapiens, MCF7, 48 h, Table 2, derivatives having potential Michael reaction acceptor
Units for pIC50: none; it is -log10 of a concentration expressed in mol/L.

Task item: Give the reported value of pIC50 for this record: C=C1C(=O)C23CC[C@H]1CC2[C@]1(COC(C)=O)CCC[C@@](C)(COC(C)=O)C1[C@H](COC(C)=O)C3=O (stereo partly drawn)
Reply: 4.82

Task item: Give the reported value of pIC50 for this record: C[C@]12CCC[C@@]3(C(=O)OC1)C1C[C@@H]4CCC1(C(=O)[C@H]4CN1CCOCC1)[C@H](O)CC23 (stereo partly drawn)
Reply: 5.39

Task item: Give the reported value of pIC50 for this record: C=C1C(=O)[C@]23CC[C@H]1CC2[C@@]12CCC[C@@](C)(COC1=O)C2[C@H](Br)C3=O (stereo partly drawn)
Reply: 5.82

* * *

Test system: Wnt signaling pathway (Top-Flash reporter gene)
Experiment: Top-Flash Wnt reporter gene assay in HEK293T cells with Wnt3a conditioned medium
Assay type: cell-based
Details: Homo sapiens, HEK-293T, 6 h, Table 8; HEK293T, Wnt3a conditioned medium, 6 h; read-out: IC50 (μM), inhibitory activity on the Wnt signaling pathway
Strictly below 10 µM in IC50: Criterion met. Otherwise: Criterion not met.

Task item: Identify whether the molecule C=C1C(=O)[C@]23CC[C@H]1CC2[C@@]12CCC[C@@](C)(COC1=O)C2CC3=O (some centres unmarked) records IC50 below 10 µM.
Reply: Criterion not met

Task item: Identify whether the molecule C=C1C(=O)[C@]23CC[C@H]1CC2[C@@]12CCC[C@@](C)(COC1)C2C[C@H]3O (some centres unmarked) records IC50 below 10 µM.
Reply: Criterion not met

Task item: Identify whether the molecule C=C1C(=O)C23CC[C@H]1CC2[C@]1(COS(C)(=O)=O)CCC[C@@](C)(COS(C)(=O)=O)C1C[C@H]3O (some centres unmarked) [Compound 72a] records IC50 below 10 µM.
Reply: Criterion not met

Task item: Identify whether the molecule C=C1C(=O)C23CC[C@H]1CC2[C@]1(COC(=O)c2cccs2)CCC[C@@](C)(COC(=O)c2cccs2)C1CC3=O (some centres unmarked) records IC50 below 10 µM.
Reply: Criterion met
